Sequence of the target: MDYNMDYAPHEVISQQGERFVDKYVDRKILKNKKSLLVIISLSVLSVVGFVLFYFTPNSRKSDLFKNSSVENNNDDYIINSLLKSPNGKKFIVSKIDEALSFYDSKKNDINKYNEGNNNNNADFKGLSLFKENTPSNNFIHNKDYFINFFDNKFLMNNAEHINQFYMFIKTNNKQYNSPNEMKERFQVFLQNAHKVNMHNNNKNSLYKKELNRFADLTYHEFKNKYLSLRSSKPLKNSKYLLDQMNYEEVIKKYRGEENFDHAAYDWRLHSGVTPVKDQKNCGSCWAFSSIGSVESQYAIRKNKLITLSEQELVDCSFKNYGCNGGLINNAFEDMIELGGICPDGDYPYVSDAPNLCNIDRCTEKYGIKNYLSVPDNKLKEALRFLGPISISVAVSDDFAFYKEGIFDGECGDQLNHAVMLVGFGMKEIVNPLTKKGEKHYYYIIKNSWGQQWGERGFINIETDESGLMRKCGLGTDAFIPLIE
pIC50: −log10 of the molar value.
measured_parameter: pIC50

{"cpd_smiles": "C#CCOc1ccc(C(=O)/C=C/c2ccc(OC)cc2)cc1", "pIC50": "< 4.00"}
{"cpd_smiles": "C#CCOc1ccccc1C(=O)/C=C/c1ccc(OC)cc1OC", "pIC50": "< 4.00"}
{"cpd_smiles": "C#CCOc1cccc(/C=C/C(=O)c2ccc(OC)cc2)c1", "pIC50": "< 4.00"}
{"cpd_smiles": "C#CCOc1ccccc1/C=C/C(=O)c1ccc(OC)cc1", "pIC50": "< 4.00"}
{"cpd_smiles": "C#CCOc1ccc(/C=C/C(=O)c2ccc(OC)cc2OC)cc1", "pIC50": "< 4.00"}

Kindly review the next compound as well.
Give recorded pIC50. C#CCOc1cccc(/C=C/C(=O)c2ccc(OC)c(OC)c2OC)c1 < 4.72
